Cited source for all entries: the RNAGym collection of RNA variant scans (doi:10.7554/elife.80360)

B1: CPEB3 Ribozyme (parent)
chain: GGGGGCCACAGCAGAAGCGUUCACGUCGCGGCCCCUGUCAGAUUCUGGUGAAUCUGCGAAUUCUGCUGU

# Variants of: B1
# testDetails: self-cleavage, relative activity (ratio to wild type); higher = more cleavage; co-transcriptional
testReadout: self-cleavage
I'd appreciate a reply containing only the number, no unit.

Consider the worked cases shown below.
{"columns": ["seqText", "self-cleavage"],
 "data": [
  ["AGGGGCAACAGCAGAAGCGUUCACGUCGCGGCCCCUGUCAGAUUCUGGUGAAUCUGCGAAUUCUGCUGU [G1A C7A]", 0.155],
  ["GGGGGCCACAGCAGAAGCGUUCACGUCGCGGCCCCUGUCAGAGUCUGGUCAAUCUGCGAAUUCUGCUGU [U43G G50C]", 0.864],
  ["GGGGGCCACAGCAGAAGCGUUCACGUCGCGGCCCCCGUCAGAUUCUGGUGAAUCUGCGAAUUCUGUUGU [U36C C66U]", 0.891],
  ["GUGGGCCACAGCAGAAGCGUUCACGUCGCGGCCCCUGUCAGAUUCUGGUGAAUCUGCGAAUUCGGCUGU [G2U U64G]", 0.0605],
  ["GGUGGCCACAGCAGAAGCGUUCACGUCGCGGCCCCUGUCAGAUUCUGGUGAAUCUGCGAAUUCUGAUGU [G3U C66A]", 0.0783],
  ["GGGGGCCACAGCAGAAGCGUUCACGUCGCGGCCCCUGUCAGAUUCUGGUAAAACUGCGAAUUCUGCUGU [G50A U53A]", 0.903],
  ["GGGGGCCACAGCAGAAGCGUUCACGUCGUGGCCCGUGUCAGAUUCUGGUGAAUCUGCGAAUUCUGCUGU [C29U C35G]", 0.237],
  ["GGGGGCGACAGCAGAAGCGUUCACGUAGCGGCCCCUGUCAGAUUCUGGUGAAUCUGCGAAUUCUGCUGU [C7G C27A]", 0.11]
]}

-- ask Provide measured self-cleavage value, entry: GGGGGCCACAGGAGAAGCGUUCACGUCGGGGCCCCUGUCAGAUUCUGGUGAAUCUGCGAAUUCUGCUGU [C12G C29G]
-- reply 0.152

-- ask Give self-cleavage for the following variant: GGGGGCCACAGCAGAAGCGUUCACGUCGCGGCACCUGACAGAUUCUGGUGAAUCUGCGAAUUCUGCUGU [C33A U38A]
-- reply 0.804

-- ask Report self-cleavage for UGGGGCCACAGCAGAAGCGUUCACGUCGCAGCCCCUGUCAGAUUCUGGUGAAUCUGCGAAUUCUGCUGU [G1U G30A]
-- reply 0.0902

-- ask Please report the measured self-cleavage for GGGGGCCACAGCAGAAGCGUUCACGUCGCGGCCCCUGUCAGAUUCAGGUGAAUCUGCGAAUUGUGCUGU [U46A C63G]
-- reply 0.838

-- ask Give recorded self-cleavage. GGGGCCCACAGUAGAAGCGUUCACGUCGCGGCCCCUGUCAGAUUCUGGUGAAUCUGCGAAUUCUGCUGU [G5C C12U]
-- reply 0.256

-- ask Quickly give me recorded self-cleavage for GGGGGUCACAGCAGAAGCGUUCACGUCGUGGCCCCUGUCAGAUUCUGGUGAAUCUGCGAAUUCUGCUGU [C6U C29U]
-- reply 0.405

-- ask Fill in reported self-cleavage for this entry: GGGGGCCACAGCAGAAGCGUUCACGUCGCGGCCCCUGUCAGAUUCUGGUGGAUCUGGGAAUUCUGCUGU [A51G C57G]
-- reply 0.322

-- ask Annotate the variant GGGGGCCACAGCAGAAGCGUUCACGUCGCGGCCCCUGACAAAUUCUGGUGAAUCUGCGAAUUCUGCUGU [U38A G41A] with its measured self-cleavage.
-- reply 0.718

-- ask Identify measured self-cleavage corresponding to GGGGGCCACAGCAGAAGCGUUCACGUCGCGGCCCCUGUCACAUUCUGGUGAAGCUGCGAAUUCUGCUGU [G41C U53G]
-- reply 0.552

-- ask In one line, give reported self-cleavage of the entry GGGGGCCGCAGCAGAAGCGUUCACGUCGCGGCCCCUGUCAGAUUCUGGUGGAUCUGCGAAUUCUGCUGU [A8G A51G] .
-- reply 0.901

-- ask Give the value of self-cleavage reported for the following: GGGGGCCACGGCAGAACCGUUCACGUCGCGGCCCCUGUCAGAUUCUGGUGAAUCUGCGAAUUCUGCUGU [A10G G17C]
-- reply 0.106

-- ask Return value of self-cleavage for input GGGGGCCACAGCAGAAGCGUUCACGUCGCGGCCCCUGUCAGAUUCUGGUGCAUCUGCGAAUUCUGCCGU [A51C U67C] , no commentary.
-- reply 0.943

-- ask Specify reported self-cleavage for the variant shown: GGGGGCCACAGCGGAAGCGUUCACGUCGCGGCCCCUGUCAGAUACUGGUGAAUCUGCGAAUUCUGCUGU [A13G U44A]
-- reply 0.877

-- ask Determine its reported self-cleavage: GGGGGCCACAGCAGAAGCGUUCACGUCGCGGCCCCUGGCAGAUUCUGGUGAAUUUGCGAAUUCUGCUGU [U38G C54U]
-- reply 0.29
